System: PAK7;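 further: KINOMEscan kinase panel screen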
assay.setup: concentration: 1 μM, replicates: in singlicate; n = 1
The following compounds are shown together with reported %Inh values.

# compound, %Inh / %
records = [
    ("O=C(Nc1n[nH]c2cc(-c3cccc(F)c3F)ccc12)C1CC1", 1),
    ("Cc1ccc(C(=O)Nc2ccc(Nc3ccnc4cc(-c5ccccn5)ccc34)cc2O)cc1.Cl", 0),
    ("COc1ccc(CNC(=O)NC2CCN(c3ccnc(Nc4cc(OC)c(OC)c(OC)c4)n3)C2)cc1 (stereo not shown)", 2),
    ("O=C(Nc1n[nH]c2nc(-c3nccs3)c(Br)cc12)C1CCCC1", 0),
]
